For each record, write down the corresponding MIC.
# Test system: Streptococcus pneumoniae
# TEST DESCRIPTION: Antibacterial activity against erythromycin-resistant Streptococcus pneumoniae A22072 expressing mefA gene
# Assay type: functional
One number for each entry, in µg/mL.

Examples with their reported MIC follow.
Hello, please tell me recorded MIC for this one: CC[C@H]1OC(=O)[C@H](C)[C@@H](O[C@H]2C[C@@](C)(OC)[C@@H](O)[C@H](C)O2)[C@H](C)[C@@H](O[C@@H]2O[C@H](C)C[C@H](N(C)C)[C@H]2O)[C@](C)(O)C[C@@H](C)CN(C)[C@H](C)[C@@H](O)[C@]1(C)O
4

Hello, please tell me recorded MIC for this one: CC[C@H]1OC(=O)[C@H](C)[C@@H](O[C@H]2C[C@@](C)(OC)[C@@H](OC(=O)NCc3cn(Cc4c(Cl)cccc4Cl)nn3)[C@H](C)O2)[C@H](C)[C@@H](O[C@@H]2O[C@H](C)C[C@H](N(C)C)[C@H]2O)[C@](C)(O)C[C@@H](C)CN(C)[C@H](C)[C@H]2OC(=O)O[C@@]21C
0.25

---
Hello, please tell me recorded MIC for this one: CC[C@H]1OC(=O)[C@H](C)[C@@H](O[C@H]2C[C@@](C)(OC)[C@@H](OC(=O)NCc3cn(Cc4ccc(Cl)cc4)nn3)[C@H](C)O2)[C@H](C)[C@@H](O[C@@H]2O[C@H](C)C[C@H](N(C)C)[C@H]2O)[C@](C)(O)C[C@@H](C)CN(C)[C@H](C)[C@@H](OC(=O)NCc2ccccc2)[C@]1(C)O
0.125

---

# System: Streptococcus pneumoniae
# TEST DESCRIPTION: Antibacterial activity against erythromycin-susceptible Streptococcus pneumoniae ATCC 49619
# Format: functional
QUANTITY: MIC (µg/mL)
Answers are plain numbers, in µg/mL.

Specify MIC for CC[C@H]1OC(=O)[C@H](C)[C@@H](O[C@H]2C[C@@](C)(OC)[C@@H](OC(=O)NCc3cn(Cc4ccccc4Cl)nn3)[C@H](C)O2)[C@H](C)[C@@H](O[C@@H]2O[C@H](C)C[C@H](N(C)C)[C@H]2O)[C@](C)(O)C[C@@H](C)CN(C)[C@H](C)[C@H]2OC(=O)O[C@@]21C , system Streptococcus pneumoniae.
1

Query molecule follows.
Specify MIC for CC[C@H]1OC(=O)[C@H](C)[C@@H](O[C@H]2C[C@@](C)(OC)[C@@H](OC(=O)NCc3cn(Cc4ccccc4)nn3)[C@H](C)O2)[C@H](C)[C@@H](O[C@@H]2O[C@H](C)C[C@H](N(C)C)[C@H]2O)[C@](C)(O)C[C@@H](C)CN(C)[C@H](C)[C@@H](OC(=O)NCc2ccncc2)[C@]1(C)O , system Streptococcus pneumoniae.
0.5

---

# Tested on: Streptococcus pneumoniae
# TEST DESCRIPTION: Antibacterial activity against erythromycin-susceptible Streptococcus pneumoniae ATCC 49619
# Assay type: functional
Note to self: use yes only for MIC readings below 0.5 µg/mL; a reading exactly at 0.5 µg/mL still gets no.

Does the reported MIC of the following compound sit strictly below 0.5 µg/mL? CC[C@H]1OC(=O)[C@H](C)[C@@H](O[C@H]2C[C@@](C)(OC)[C@@H](O)[C@H](C)O2)[C@H](C)[C@@H](O[C@@H]2O[C@H](C)C[C@H](N(C)C)[C@H]2O)[C@](C)(O)C[C@@H](C)CN(C)[C@H](C)[C@@H](O)[C@]1(C)O
yes

Does the reported MIC of the following compound sit strictly below 0.5 µg/mL? CC[C@H]1OC(=O)[C@H](C)[C@@H](O[C@H]2C[C@@](C)(OC)[C@@H](OC(=O)NCc3cn(Cc4ccc(Br)cc4)nn3)[C@H](C)O2)[C@H](C)[C@@H](O[C@@H]2O[C@H](C)C[C@H](N(C)C)[C@H]2O)[C@](C)(O)C[C@@H](C)CN(C)[C@H](C)[C@H]2OC(=O)O[C@@]21C
no

Does the reported MIC of the following compound sit strictly below 0.5 µg/mL? CC[C@H]1OC(=O)[C@H](C)[C@@H](O[C@H]2C[C@@](C)(OC)[C@@H](OC(=O)NCc3cn(Cc4cccc(Cl)c4)nn3)[C@H](C)O2)[C@H](C)[C@@H](O[C@@H]2O[C@H](C)C[C@H](N(C)C)[C@H]2O)[C@](C)(O)C[C@@H](C)CN(C)[C@H](C)[C@@H](O)[C@]1(C)O
yes

Does the reported MIC of the following compound sit strictly below 0.5 µg/mL? CC[C@H]1OC(=O)[C@H](C)[C@@H](O[C@H]2C[C@@](C)(OC)[C@@H](OC(=O)NCc3cn(Cc4ccc([N+](=O)[O-])cc4)nn3)[C@H](C)O2)[C@H](C)[C@@H](O[C@@H]2O[C@H](C)C[C@H](N(C)C)[C@H]2O)[C@](C)(O)C[C@@H](C)CN(C)[C@H](C)[C@H]2OC(=O)O[C@@]21C
no

Does the reported MIC of the following compound sit strictly below 0.5 µg/mL? CC[C@H]1OC(=O)[C@H](C)[C@@H](O[C@H]2C[C@@](C)(OC)[C@@H](OC(=O)NCc3cn(Cc4ccccc4C)nn3)[C@H](C)O2)[C@H](C)[C@@H](O[C@@H]2O[C@H](C)C[C@H](N(C)C)[C@H]2O)[C@](C)(O)C[C@@H](C)CN(C)[C@H](C)[C@@H](O)[C@]1(C)O
yes

Does the reported MIC of the following compound sit strictly below 0.5 µg/mL? CC[C@H]1OC(=O)[C@H](C)[C@@H](O[C@H]2C[C@@](C)(OC)[C@@H](OC(=O)NCc3cn(C4CCCCC4)nn3)[C@H](C)O2)[C@H](C)[C@@H](O[C@@H]2O[C@H](C)C[C@H](N(C)C)[C@H]2O)[C@](C)(O)C[C@@H](C)CN(C)[C@H](C)[C@H]2OC(=O)O[C@@]21C
no

---
Does the reported MIC of the following compound sit strictly below 0.5 µg/mL? CC[C@H]1OC(=O)[C@H](C)[C@@H](O[C@H]2C[C@@](C)(OC)[C@@H](OC(=O)NCc3cn(Cc4ccc(Cl)cc4Cl)nn3)[C@H](C)O2)[C@H](C)[C@@H](O[C@@H]2O[C@H](C)C[C@H](N(C)C)[C@H]2O)[C@](C)(O)C[C@@H](C)CN(C)[C@H](C)[C@@H](OC(=O)NCc2ccc(OC)cc2)[C@]1(C)O
yes

Does the reported MIC of the following compound sit strictly below 0.5 µg/mL? CC[C@H]1OC(=O)[C@H](C)[C@@H](O[C@H]2C[C@@](C)(OC)[C@@H](OC(=O)NCc3cn(Cc4ccc(Cl)cc4)nn3)[C@H](C)O2)[C@H](C)[C@@H](O[C@@H]2O[C@H](C)C[C@H](N(C)C)[C@H]2O)[C@](C)(O)C[C@@H](C)CN(C)[C@H](C)[C@@H](OC(=O)NCc2ccccc2)[C@]1(C)O
yes

Does the reported MIC of the following compound sit strictly below 0.5 µg/mL? CC[C@H]1OC(=O)[C@H](C)[C@@H](O[C@H]2C[C@@](C)(OC)[C@@H](OC(=O)NCc3cn(Cc4ccccc4)nn3)[C@H](C)O2)[C@H](C)[C@@H](O[C@@H]2O[C@H](C)C[C@H](N(C)C)[C@H]2O)[C@](C)(O)C[C@@H](C)CN(C)[C@H](C)[C@@H](OC(=O)NCCc2ccccc2)[C@]1(C)O
yes

---

For each record, write down the corresponding MIC.
# Test system: Streptococcus pneumoniae
# TEST DESCRIPTION: Antibacterial activity against erythromycin-resistant Streptococcus pneumoniae A22072 expressing mefA gene
# Type: functional
One number for each entry, in µg/mL.

Examples with their reported MIC follow.
Hello, please tell me recorded MIC for this one: CC[C@H]1OC(=O)[C@H](C)[C@@H](O[C@H]2C[C@@](C)(OC)[C@@H](OC(=O)NCc3cn(Cc4ccccc4)nn3)[C@H](C)O2)[C@H](C)[C@@H](O[C@@H]2O[C@H](C)C[C@H](N(C)C)[C@H]2O)[C@](C)(O)C[C@@H](C)CN(C)[C@H](C)[C@@H](OC(=O)NCCc2ccccc2)[C@]1(C)O
0.125

Hello, please tell me recorded MIC for this one: CC[C@H]1OC(=O)[C@H](C)[C@@H](O[C@H]2C[C@@](C)(OC)[C@@H](OC(=O)NCc3cn(Cc4c(Cl)cccc4Cl)nn3)[C@H](C)O2)[C@H](C)[C@@H](O[C@@H]2O[C@H](C)C[C@H](N(C)C)[C@H]2O)[C@](C)(O)C[C@@H](C)CN(C)[C@H](C)[C@@H](OC(=O)NCc2ccc(OC)cc2)[C@]1(C)O
0.03

Query compound follows.
Hello, please tell me recorded MIC for this one: CC[C@H]1OC(=O)[C@H](C)[C@@H](O[C@H]2C[C@@](C)(OC)[C@@H](OC(=O)NCc3cn(Cc4ccccc4Cl)nn3)[C@H](C)O2)[C@H](C)[C@@H](O[C@@H]2O[C@H](C)C[C@H](N(C)C)[C@H]2O)[C@](C)(O)C[C@@H](C)CN(C)[C@H](C)[C@@H](O)[C@]1(C)O
0.25
